# assay-target: T1, CEACAM1-HIS (Sino Biologics Inc.) (Homo sapiens (Human), UniProt P13688 35-428)
# T1 construct: bought; not shown: His tag
# T1 sequence: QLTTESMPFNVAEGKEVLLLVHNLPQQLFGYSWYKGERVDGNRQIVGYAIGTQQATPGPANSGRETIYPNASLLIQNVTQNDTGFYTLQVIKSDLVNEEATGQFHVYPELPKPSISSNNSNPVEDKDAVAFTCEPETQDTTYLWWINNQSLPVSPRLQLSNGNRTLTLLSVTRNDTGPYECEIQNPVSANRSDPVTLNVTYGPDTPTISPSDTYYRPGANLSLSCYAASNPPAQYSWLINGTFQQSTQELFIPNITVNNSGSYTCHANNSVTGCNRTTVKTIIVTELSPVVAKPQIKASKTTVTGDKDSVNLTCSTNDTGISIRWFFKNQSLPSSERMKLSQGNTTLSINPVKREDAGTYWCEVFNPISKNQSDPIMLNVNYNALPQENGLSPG
# assay-details: SPR multi-cycle
Hi there, I'd appreciate the recorded average relative KD to chimeric parental antibody for every entry that follows.
One number for each entry, in ratio.

Consider the worked cases shown below.
binder: VH1/Vκ1 (antibody, V domains shown) VH: EVQLLESGGGLVQPGGSLRLSCAASGFIFSSHGMSWVRQAPGKGLEWVATISSGGTYTYYPDSVKGRFTISRDNSKNTLYLQMNSLKAEDTAMYYCARHDFDYDAAWFAYWGQGTLVTVSS VL: QIVLTQSPALLSLSPGERATMSCSANSSVSYMYWYRQKPGQAPKPWIYLTSNLASGVPARFSGSGSGTDYTLTISSLEAEDFATYYCQQWSSNPPTFGQGTKLEIK
measurement-unit: ratio
number: 1.45

binder: VH1/Vκ2 (antibody, V domains shown) VH: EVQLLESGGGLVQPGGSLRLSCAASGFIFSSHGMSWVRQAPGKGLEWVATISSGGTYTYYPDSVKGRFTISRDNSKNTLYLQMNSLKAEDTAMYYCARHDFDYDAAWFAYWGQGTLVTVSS VL: EIVLTQSPATLSLSPGERATLSCRANSSVSYMYWYQQKPGQAPRPWIYLTSNRATGVPARFSGSGSGTDYTLTISSLEPEDFATYYCQQWSSNPPTFGQGTKLEIK
measurement-unit: ratio
number: 1.46

binder: VH2/Vκ2 (antibody, V domains shown) VH: EVQLLESGGGLVQPGGSLRLSCAASGFIFSSHGMSWVRQAPGKGLEWVATISSGGTYTYYPDSVKGRFTISRDNSKNTLYLQMNSLRAEDTAMYYCARHDFDYDAAWFAYWGQGTLVTVSS VL: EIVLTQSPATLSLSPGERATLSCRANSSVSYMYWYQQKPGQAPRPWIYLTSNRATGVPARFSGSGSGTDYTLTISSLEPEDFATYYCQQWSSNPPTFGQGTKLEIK
measurement-unit: ratio
number: 1.27

Let's switch to this binder now.
Query string: Which average relative KD to chimeric parental antibody value is on record for VH2/Vκ1 (antibody, V domains shown) VH: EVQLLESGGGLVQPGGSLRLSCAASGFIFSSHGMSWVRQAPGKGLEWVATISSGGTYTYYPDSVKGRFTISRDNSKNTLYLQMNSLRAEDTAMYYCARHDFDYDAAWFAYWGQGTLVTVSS VL: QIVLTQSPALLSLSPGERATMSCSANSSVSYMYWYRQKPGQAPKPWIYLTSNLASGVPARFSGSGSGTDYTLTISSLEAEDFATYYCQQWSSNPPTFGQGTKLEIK ?
Result string: 1.31
